Target: recombinant human MC5 receptor (Homo sapiens)
Sequence (P33032 whole entry): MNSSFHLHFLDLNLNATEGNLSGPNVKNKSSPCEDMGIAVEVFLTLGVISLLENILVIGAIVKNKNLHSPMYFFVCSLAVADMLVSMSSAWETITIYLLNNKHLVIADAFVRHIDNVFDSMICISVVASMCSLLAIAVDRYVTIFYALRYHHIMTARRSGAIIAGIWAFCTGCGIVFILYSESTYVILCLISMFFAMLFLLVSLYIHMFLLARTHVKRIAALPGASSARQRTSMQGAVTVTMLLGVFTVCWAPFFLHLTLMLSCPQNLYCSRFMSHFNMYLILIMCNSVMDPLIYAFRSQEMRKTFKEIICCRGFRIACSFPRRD
Test: Affinity for the MC5-receptor, displacement of 125I-NDP-MSH in transfected Sf9 or COS cells
Conditions: nb = non-binding, i.e. no affinity, read-out: Affinity for MC-receptors, Ki, MC5
readout kind: Ki (µM)

I. N=C(N)NN=Cc1cc(O)ccc1Br
II. N=C(N)NN=Cc1cccc(Br)c1
Of I and II , which shows the smaller Ki value? Mark your answer with the label of the selected entry.
II

---

Molecular target: recombinant human MC4 receptor (Homo sapiens, UniProt P32245)
Sequence (P32245 whole entry): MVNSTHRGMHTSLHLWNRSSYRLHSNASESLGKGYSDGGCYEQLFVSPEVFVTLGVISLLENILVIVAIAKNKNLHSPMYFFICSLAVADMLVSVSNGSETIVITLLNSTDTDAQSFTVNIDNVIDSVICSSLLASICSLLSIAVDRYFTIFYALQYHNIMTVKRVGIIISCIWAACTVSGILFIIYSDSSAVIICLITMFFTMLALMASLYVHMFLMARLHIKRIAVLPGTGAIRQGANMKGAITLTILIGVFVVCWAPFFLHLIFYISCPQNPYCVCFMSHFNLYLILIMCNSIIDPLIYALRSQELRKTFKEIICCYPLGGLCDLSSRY
Experiment: Affinity for the MC4-receptor, displacement of 125I-NDP-MSH in transfected Sf9 or COS cells
Conditions: nb = non-binding, i.e. no affinity, read-out: Affinity for MC-receptors, Ki, MC4
pKi: −log10 of the molar value.
readout kind: pKi

# compound, pKi
data = [
    ("N=C(N)NN=Cc1cc(O)ccc1Br [1:15]", 5.17),
]

P. N=C(N)NN=Cc1ccccc1Br [1:14, N-(2-Bromobenzylideneamino)guanidine]
Q. N=C(N)NN=Cc1cccc(Br)c1 [1:21, N-(3-Bromobenzylideneamino)guanidine]
R. N=C(N)NN=Cc1cc2c(cc1[N+](=O)[O-])OCO2 [1:17]
# rank by pKi, ascending (min first) // respond by listing labels in the order requested
R, Q, P
(R: 4.55, Q: 5.27, P: 6.05)

---

Biological target: MC1 receptor (Mus musculus, UniProt Q01727)
Construct: B16 mouse melanoma cells were used, which endogenously express the (mouse) MC1 receptor; endogenous in cells
Sequence (Q01727 whole entry): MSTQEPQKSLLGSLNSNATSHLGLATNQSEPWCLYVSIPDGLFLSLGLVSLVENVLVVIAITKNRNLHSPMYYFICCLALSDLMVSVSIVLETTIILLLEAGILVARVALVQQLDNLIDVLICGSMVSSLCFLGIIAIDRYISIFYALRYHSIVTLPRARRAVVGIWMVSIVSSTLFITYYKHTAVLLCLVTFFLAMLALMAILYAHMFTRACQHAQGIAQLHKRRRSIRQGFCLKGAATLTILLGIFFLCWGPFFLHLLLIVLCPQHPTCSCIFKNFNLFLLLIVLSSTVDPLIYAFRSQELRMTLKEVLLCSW
Test: Affinity for the MC1-receptor, displacement of 125I-NDP-MSH in B16 mouse melanoma cells
Conditions: endogenous mouse MC1, nb = non-binding, i.e. no affinity, read-out: Affinity for MC-receptors, Ki, MC1
readout kind: Ki (nM)

# smiles code, unit of measure, Ki
measured = [
    ("N=C(N)NN=Cc1ccccc1Br", "nM", 600),
]

A. N=C(N)NN=Cc1cccc(Br)c1
B. N=C(N)NN=Cc1cc2c(cc1[N+](=O)[O-])OCO2
Of A and B , which shows the smaller Ki value? Mark your answer with the label of the selected entry.
A

---

Structures can show the parent of a compound that is named as a salt.
# maps each entry to its melting point

Known results for compounds:
# compound, melting point
records = [
    ("N=C(N)NN=Cc1cc(O)ccc1Br (as salt: HCl) [1:15]", "223 to 228 °C (dec.)"),
    ("N=C(N)NN=Cc1cc2c(cc1[N+](=O)[O-])OCO2 (as salt: salt) [1:17]", "205 to 212 °C (dec.)"),
    ("N=C(N)NN=Cc1cccc(Br)c1 (as salt: salt) [1:21, N-(3-Bromobenzylideneamino)guanidine]", "160 to 161.5 °C"),
]

Turning to the following compound.
Reported melting point, compound N=C(N)NN=Cc1ccccc1Br (as salt: HCl) [1:14, N-(2-Bromobenzylideneamino)guanidine] : ____
197 to 201 °C
